Ref: ChEMBL document CHEMBL3885881

For each record, write down the corresponding ABSOLUTE LYMPHOCYTE.
# Organism: Rattus norvegicus
# measurementDescription: DrugMatrix - Regimen: Daily Repeat
# Assay type: toxicity, organism-based, Sprague-Dawley
# Set-up: regimen Daily Repeat, gender Male, age 6-8 weeks
# testParameters: in vivo, po, 0 mg/kg, 120 h, tissue Blood, route oral GAVAGE, dose level Control, time 5 day, vehicle 100 % SALINE

Oc1ccccc1O [CATECHOL] yielded ABSOLUTE LYMPHOCYTE of 12880 CELLS/uL

Cc1cc(CC(=O)O)n(C)c1C(=O)c1ccc(Cl)cc1 [ZOMEPIRAC] yielded ABSOLUTE LYMPHOCYTE of 12880 CELLS/uL

CCCc1nn(C)c2c(=O)[nH]c(-c3cc(S(=O)(=O)N4CCN(C)CC4)ccc3OCC)nc12 yielded ABSOLUTE LYMPHOCYTE of 8681.17 CELLS/uL

CC(=O)OCC(CCn1cnc2cnc(N)nc21)COC(C)=O [FAMCICLOVIR] yielded ABSOLUTE LYMPHOCYTE of 8681.17 CELLS/uL

====

# Species on record: Rattus norvegicus
# measurementDescription: DrugMatrix - Regimen: Daily Repeat
# Assay type: toxicity, organism-based, Sprague-Dawley
# Parameters: regimen Daily Repeat, gender Male, age 6-8 weeks
# testParameters: in vivo, po, 0 mg/kg, 120 h, tissue Blood, route oral GAVAGE, dose level Control, time 5 day, […]
measuredAttribute: MEAN CORPUSCULAR HEMOGLOBIN (pg)
Give just the numeric value; pg need not be written.

CC(=O)Nc1nnc(S(N)(=O)=O)s1 [ACETAZOLAMIDE] yielded MEAN CORPUSCULAR HEMOGLOBIN of 25.7

OCCN1CCN(CCCN2c3ccccc3Sc3ccc(C(F)(F)F)cc32)CC1 yielded MEAN CORPUSCULAR HEMOGLOBIN of 24.5

CC(CCc1ccc(O)cc1)NCCc1ccc(O)c(O)c1 (stereo not given) yielded MEAN CORPUSCULAR HEMOGLOBIN of 21.57

C#C[C@]1(O)CC[C@H]2[C@@H]3CCc4cc(O)ccc4[C@H]3CC[C@@]21C yielded MEAN CORPUSCULAR HEMOGLOBIN of 25.17

CCn1cc(C(=O)O)c(=O)c2cc(F)c(N3CCNCC3)nc21 yielded MEAN CORPUSCULAR HEMOGLOBIN of 25.17

====

# Species on record: Rattus norvegicus
# measurementDescription: DrugMatrix - Regimen: Daily Repeat
# Format: toxicity, organism-based, Sprague-Dawley
# Design: regimen Daily Repeat, gender Male, age 6-8 weeks
# testParameters: in vivo, po, 0 mg/kg, 72 h, tissue Plasma, route oral GAVAGE, dose level Control, time 3 day, vehicle 100 % WATER
For each record, write down the corresponding ALBUMIN.
Answer as a quantity: numeral, then unit.

Nc1ccc(S(=O)(=O)Nc2nccs2)cc1 yielded ALBUMIN of 4.08 G/DL

O=P1(N(CCCl)CCCl)NCCCO1 (stereo unspecified) [CYCLOPHOSPHAMIDE ANHYDROUS] yielded ALBUMIN of 4.07 G/DL

O=C(O)c1cc(=O)c2c(OCC(O)COc3cccc4oc(C(=O)O)cc(=O)c34)cccc2o1 yielded ALBUMIN of 3.95 G/DL

CC(C)(C)NC[C@H](O)COc1nsnc1N1CCOCC1 yielded ALBUMIN of 4.08 G/DL

CCOC(N)=O yielded ALBUMIN of 3.78 G/DL

CCCCCCCCCCCCCCCC[n+]1ccccc1.[Br-] yielded ALBUMIN of 4.25 G/DL

CCN(CC)CC#CCOC(=O)C(O)(c1ccccc1)C1CCCCC1 (stereo unspecified) yielded ALBUMIN of 4.27 G/DL

CCN[C@@H](C)Cc1cccc(C(F)(F)F)c1 yielded ALBUMIN of 3.75 G/DL

CNS(=O)(=O)Cc1ccc2[nH]cc(CCN(C)C)c2c1 yielded ALBUMIN of 4.1 G/DL

OCCO yielded ALBUMIN of 4.07 G/DL

Nc1ccc(S(=O)(=O)Nc2ncccn2)cc1 yielded ALBUMIN of 3.75 G/DL

====

# Species: Rattus norvegicus
# measurementDescription: DrugMatrix - Regimen: Daily Repeat
# Type: toxicity, organism-based, Sprague-Dawley
# Parameters: regimen Daily Repeat, gender Male, age 6-8 weeks
# testParameters: in vivo, po, 0 mg/kg, […], tissue Blood, route oral GAVAGE, dose level Control, time 28 day, vehicle .5 % CMC
For each record, write down the corresponding ABSOLUTE EOSINOPHIL.
Give just the numeric value; cells/µL need not be written.

O=c1cc(-c2ccccc2)oc2ccc3ccccc3c12 yielded ABSOLUTE EOSINOPHIL of 54

Clc1cc2c(cc1Cl)Oc1cc(Cl)c(Cl)cc1O2 yielded ABSOLUTE EOSINOPHIL of 54

====

For each record, write down the corresponding BASOPHIL.
# Species: Rattus norvegicus
# measurementDescription: DrugMatrix - Regimen: Daily Repeat
# Format: toxicity, organism-based, Sprague-Dawley
# Set-up: regimen Daily Repeat, gender Male, age 6-8 weeks
# testParameters: in vivo, po, 100 mg/kg, 120 h, tissue Blood, route oral GAVAGE, dose level Low, time 5 day, vehicle .5 % CMC
Give just the numeric value; % need not be written.

Nc1nc2c(c(=O)[nH]1)N(C=O)C(CNc1ccc(C(=O)N[C@@H](CCC(=O)O)C(=O)O)cc1)CN2 (some centres undefined) yielded BASOPHIL of 0

CC[C@]1(O)CC[C@H]2[C@@H]3CCC4=CCCC[C@@H]4[C@H]3CC[C@@]21C yielded BASOPHIL of 0.47

C#C[C@]1(O)CC[C@H]2[C@@H]3CCC4=Cc5oncc5C[C@]4(C)[C@H]3CC[C@@]21C yielded BASOPHIL of 0

CC=Cc1ccc(O)c(OC)c1 yielded BASOPHIL of 0

====

For each record, write down the corresponding CHOLESTEROL.
# Species: Rattus norvegicus
# measurementDescription: DrugMatrix - Regimen: Daily Repeat
# Type: toxicity, organism-based, Sprague-Dawley
# Design: regimen Daily Repeat, gender Male, age 6-8 weeks
# testParameters: in vivo, po, 0 mg/kg, 120 h, tissue Plasma, route oral GAVAGE, dose level Control, time 5 day, […]
Answer as a quantity: numeral, then unit.

OCCN1CCN(CCCN2c3ccccc3Sc3ccc(C(F)(F)F)cc32)CC1 yielded CHOLESTEROL of 66.83 mg/dL

CC(CCc1ccc(O)cc1)NCCc1ccc(O)c(O)c1 (centres undefined) yielded CHOLESTEROL of 88.33 mg/dL

CC[C@H](C)C(=O)O[C@H]1C[C@@H](C)C=C2C=C[C@H](C)[C@H](CC[C@@H]3C[C@@H](O)CC(=O)O3)[C@H]21 yielded CHOLESTEROL of 79.67 mg/dL

COc1ncnc(NS(=O)(=O)c2ccc(N)cc2)c1OC yielded CHOLESTEROL of 64.83 mg/dL

====

# Species: Rattus norvegicus
# measurementDescription: DrugMatrix - Regimen: Daily Repeat
# Type: toxicity, organism-based, Sprague-Dawley
# Set-up: regimen Daily Repeat, gender Male, age 6-8 weeks
# testParameters: in vivo, po, 100 mg/kg, 120 h, tissue Blood, route oral GAVAGE, dose level Low, time 5 day, vehicle .5 % CMC
For each record, write down the corresponding ABSOLUTE BASOPHIL.
Give just the numeric value; CELLS/uL need not be written.

C#C[C@]1(O)CC[C@H]2[C@@H]3CCC4=Cc5oncc5C[C@]4(C)[C@H]3CC[C@@]21C yielded ABSOLUTE BASOPHIL of 0

Nc1nc2c(c(=O)[nH]1)N(C=O)C(CNc1ccc(C(=O)N[C@@H](CCC(=O)O)C(=O)O)cc1)CN2 (some centres undefined) yielded ABSOLUTE BASOPHIL of 0

CC=Cc1ccc(O)c(OC)c1 yielded ABSOLUTE BASOPHIL of 0

====

# Species: Rattus norvegicus
# measurementDescription: DrugMatrix - Regimen: Daily Repeat
# Format: toxicity, organism-based, Sprague-Dawley
# Set-up: regimen Daily Repeat, gender Male, age 6-8 weeks
# testParameters: in vivo, po, 0 mg/kg, 120 h, tissue Plasma, route oral GAVAGE, dose level Control, time 5 day, vehicle 100 % WATER
measuredAttribute: CREATININE (mg/dL)
Give just the numeric value; mg/dL need not be written.

CCCCCCCCCCCCCCCC[n+]1ccccc1.[Br-] yielded CREATININE of 0.15

CC[C@H]1OC(=O)[C@H](C)[C@@H](O[C@H]2C[C@@](C)(OC)[C@@H](O)[C@H](C)O2)[C@H](C)[C@@H](O[C@@H]2O[C@H](C)C[C@H](N(C)C)[C@H]2O)[C@](C)(OC)C[C@@H](C)C(=O)[C@H](C)[C@@H](O)[C@]1(C)O yielded CREATININE of 0.27

CC(C)(C)NC[C@H](O)COc1nsnc1N1CCOCC1 yielded CREATININE of 0.2
